From: paper PMC10397247

# Tested on: T1, 4H953-bN
# T1 chain: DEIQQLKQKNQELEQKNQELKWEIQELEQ
# Experiment notes: two-hybrid library CCNG1;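 note: natural log of median RNA to DNA barcode read ratio; higher means stronger binding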
Property name: interaction score

Below, each entry is followed by its recorded interaction score result.
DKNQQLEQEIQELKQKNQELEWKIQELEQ [4H3189-bN]; -1.88
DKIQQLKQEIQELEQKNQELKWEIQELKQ [4H2618-bN]; -1.12
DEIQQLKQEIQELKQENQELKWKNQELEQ [4H607-bN]; -1.56
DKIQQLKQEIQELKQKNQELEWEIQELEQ [4H2673-bN]; -1.21

(I) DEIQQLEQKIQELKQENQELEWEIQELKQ [4H338-bN]
(II) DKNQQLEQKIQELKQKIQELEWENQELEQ [4H3427-bN]
Asked: Response body: label of entry with the larger interaction score; valid values I , II . Use the label to indicate which entry you chose.
Given back: II
